Every entry's value here was drawn from patent US4829082A.

EXPERIMENTAL_DETAILS: Acute toxicity in mice
CONDITIONS_USED: mouse, in vivo, ip

[
  {
    "COMPOUND": "CC(C=CC1=C(C)CCCC1(C)C)=CC=CC(C)=CC(=O)Oc1c(C)c(C)c2c(c1C)CCC(C)(CCCC(C)CCCC(C)CCCC(C)C)O2 (stereo not shown) [TOC ester, tocopheryl retinoate]",
    "LD50": "> 10000 mg/kg"
  }
]
